# test details: resazurin metabolic signal in HepG2 cells – cell-based, resazurin fluorescence, 24 h, PK04 Diversity Set, profiling panel (AID 1172); further: test concentration not given here
# condition details: HepG2 viability, higher = more signal
measured metric: z-score

{"molecule": "COc1ccc(CCNC(=O)[C@@]2(C)c3ccccc3C(=O)N(c3ccc(C)cn3)[C@H]2c2ccc(CO)cc2)cc1", "endpoint result": 0.437}
{"molecule": "O=C1C2C=CC(C(O)c3c(F)cccc3Cl)N(Nc3ccccc3F)C2C(=O)N1c1ccccc1 (centres undefined)", "endpoint result": -0.269}
{"molecule": "O=C1O[C@H](c2ccccc2)[C@H](c2ccccc2)N2[C@H]1[C@@H](C(=O)NC[C@H](O)c1ccccc1)[C@]1(C(=O)Nc3ccccc31)[C@H]2c1ccc(O)cc1", "endpoint result": -1}
{"molecule": "[N-]=[N+]=NCc1ccccc1[C@@H]1OC(c2ccc(OCCCO)cc2)=N[C@]1(CCS(=O)(=O)c1ccccc1)C(N)=O", "endpoint result": -0.493}
{"molecule": "C=C(CCCC)/C(=C/C[C@@H](OC(C)=O)c1cccc(OCCO)c1)c1cnc2ccccc2c1", "endpoint result": -0.256}
{"molecule": "CCCCC(=C=CC[C@H](O)c1cccc(OCCO)c1)C[C@H](O)c1ccccn1", "endpoint result": 1.7}
{"molecule": "C=CCN1C(=O)[C@]2(O[C@H](CCO)[C@@H]([Si](C)(C)c3ccc(OC)cc3)[C@@H]2C)c2cc(N(C=O)c3ccccc3)ccc21", "endpoint result": -6}
{"molecule": "CC(=O)Nc1cc(Br)ccc1C(=O)NCc1ccccc1", "endpoint result": 0.184}
{"molecule": "COC(=O)c1c(CC[C@@H](CO)NC(=O)N[C@H](Cc2ccccc2)Cn2cc(-c3ccccn3)nn2)oc(C(C)=O)c1C(=O)OC", "endpoint result": -1.62}
{"molecule": "COc1ccc(C(=O)Nc2cccc(CN3C(=O)[C@]4(O[C@H](CCn5cc(CCO)nn5)[C@@H]([Si](C)(C)c5ccc(OC)cc5)[C@@H]4C)c4ccccc43)c2)cc1", "endpoint result": -6.31}
{"molecule": "C[N+](C)(C)CCCCCCNC(=O)[C@H]1C[C@H]2C(=O)N[C@@H](Cc3ccccc3)C(=O)N2[C@H]1c1cccc(OCCO)c1", "endpoint result": 0.384}
{"molecule": "O=C(CS)NCCCCCNC(=O)[C@H]1C[C@H]2C(=O)NCC(=O)N2[C@H]1c1ccc(O)cc1", "endpoint result": 1.33}
{"molecule": "CCCC=C(CCC)[C@@H](NC(=O)OCC(C)C)c1ccccc1", "endpoint result": -0.624}
{"molecule": "COc1cc(CO)cc(I)c1O[C@H]1C=C(C(=O)NCCO)C[C@@H](N(C(=O)c2cc3ccccc3oc2=O)C2CCCCCC2)[C@@H]1O", "endpoint result": -0.163}
{"molecule": "NC(=O)NCC#Cc1ccc2c(c1)[C@]1(C(=O)N2)[C@H](C(=O)O)[C@H]2C(=O)O[C@H](c3ccccc3)[C@H](c3ccccc3)N2[C@@H]1c1ccc(O)cc1", "endpoint result": 0.891}
{"molecule": "CC(C)(C)OC(=O)CC[C@@]1(C(=O)N2CCCCC2)N=C(c2ccc(OCCCO)cc2)O[C@@H]1c1ccccc1", "endpoint result": 0.426}
{"molecule": "Cc1ccc(S[C@]2(C(=O)O)CC(=O)N(C(C)C)[C@@H]2c2ccc(CO)cc2)cc1", "endpoint result": 0.0469}
{"molecule": "CCCC1(C(=O)OC)C=C2C(=C(c3ccccc3)C(=O)C2C)CN1 (centres undefined)", "endpoint result": -0.913}
{"molecule": "CN(C)CCCCNC(=O)[C@@H]1C[C@@H]2C(=O)N[C@@H](CCCCN)C(=O)N2[C@@H]1c1ccc(O)cc1", "endpoint result": 0.637}
{"molecule": "O[C@@H](Cc1ccccc1)[C@@H](/C=C/C1CC1)NCc1cccc(Cl)c1", "endpoint result": -0.891}
{"molecule": "C=C(CCCC)/C(=C/C[C@@H](OC(C)=O)c1ccccc1OCCO)c1cc(C(=O)OC)ccc1OC", "endpoint result": 0.937}
{"molecule": "C=C(/C(=C/C[C@H](OC(C)=O)c1ccc(OCCO)cc1)c1cc(C(=O)OC)ccc1OC)C(C)C", "endpoint result": 1.5}
{"molecule": "C[N+](C)(C)CCCC[C@@H]1NC(=O)[C@@H]2C[C@H](C(=O)NCCCCCCNC(=O)CS)[C@H](c3ccc(O)cc3)N2C1=O", "endpoint result": -0.206}
{"molecule": "CC#CC(=O)Oc1ccc(Br)cc1C=CC(=O)OCC", "endpoint result": -0.0419}

* * *

# study system: Torsin-1A-interacting protein 1 (Homo sapiens)
# test details: compound microarray binding of lysate hLAP1 – cell lysate, small-molecule microarray, COS7 lysate, 635/667 nm fluorescence, primary screen (AID 1116)
# condition details: 635 nm fluorescence, higher = more signal
measured metric: composite z-score

{"compound": "C=C(C)[C@@H]1CC=C(C(O)C2C=CC3C(=O)NC(=O)C3N2Nc2ccc(Cl)cc2Cl)CC1 (stereo partly drawn)", "endpoint result": 0.584}
{"compound": "COc1ccc(C(=O)Nc2ccc(CN3C(=O)[C@]4(O[C@H](CC(=O)N5CCC[C@H]5CO)[C@@H]([Si](C)(C)c5ccc(OC)cc5)[C@@H]4C)c4ccccc43)cc2)cc1", "endpoint result": 1.08}
{"compound": "COc1cc(OC)c(C(O)C2C=CC3C(=O)NC(=O)C3N2Nc2ccccn2)cc1Br (stereo not drawn)", "endpoint result": 1.17}

* * *

# test details: probe aDKK1 binding to arrayed compounds – biochemical, biotinylated probe, 635/667 nm fluorescence, primary screen (AID 1099);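 further: score merges 667nm spot fluorescence with signal to noise across triplicate slides; reference of the scale not given here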
# condition details: small-molecule microarray, higher = more signal

{"molecule": "O=C1O[C@H](c2ccccc2)[C@H](c2ccccc2)N2[C@H]1[C@@H](C(=O)NC[C@H](O)c1ccccc1)[C@]1(C(=O)Nc3ccccc31)[C@H]2c1ccc(O)cc1", "composite z-score": -0.0713}
{"molecule": "CN1CCC(CCCO)=CC1c1cccs1 (stereo not given)", "composite z-score": -0.391}
{"molecule": "[N-]=[N+]=NCc1ccccc1[C@@H]1OC(c2ccc(OCCCO)cc2)=N[C@]1(CCS(=O)(=O)c1ccccc1)C(N)=O", "composite z-score": 0.775}
{"molecule": "O=C1C2C=CC(C(O)C=Cc3ccc([N+](=O)[O-])cc3)N(Nc3ccccc3F)C2C(=O)N1c1ccccc1 (stereo not given)", "composite z-score": 0.468}
{"molecule": "CC(=O)NCCCC[C@@H]1NC(=O)[C@H]2C[C@@H](C(=O)NCCCCCNC(=O)CS)[C@@H](c3ccc(O)cc3)N2C1=O", "composite z-score": 0.143}

* * *

composite z-score for assorted molecules
# test details: probe aNOTCH3 binding on compound microarray – biochemical, small-molecule microarray, 635/667 nm fluorescence, primary screen (AID 1120);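 further: probe is a biotin-tagged antibody raised against NOTCH3 rather than NOTCH3 protein; score merges spot fluorescence near 667 nm with spot signal to noise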
# condition details: higher = more signal
measured metric: composite z-score

{"molecule": "CN1C(=O)C2C=CC(C(O)C=Cc3ccc([N+](=O)[O-])cc3)N(Nc3ccccc3)C2C1=O (stereo unspecified)", "endpoint result": 0.255}
{"molecule": "O=C1C2C=CC(C(O)c3cc(C(F)(F)F)cc(C(F)(F)F)c3)N(Nc3ccccc3)C2C(=O)N1c1ccccc1 (stereo unspecified)", "endpoint result": 0.0435}
{"molecule": "CCCCC(=C=CC[C@H](O)c1cccc(OCCO)c1)C[C@H](O)c1ccccn1", "endpoint result": -0.0014}
{"molecule": "COCCCNC(=O)[C@@]1(Sc2ccc(C)cc2)CC(=O)N(Cc2ccccc2Cl)[C@@H]1c1ccc(CO)cc1", "endpoint result": 0.132}
{"molecule": "COC(=O)[C@@]1(Cc2ccc(F)cc2)[C@H]2c3cc(C(=O)N(C)C)n(Cc4ccc(C)o4)c3C[C@H]2CN1C(=O)c1ccccc1", "endpoint result": 1.6}
{"molecule": "COCCCNC(=O)[C@@H]1c2ccccc2C(=O)N(Cc2ccccc2OC)[C@H]1c1ccc(CO)cc1", "endpoint result": -0.0932}

* * *

# test details: FRG1 expression reporter modulators in myotubes – cell-based, C2C12 myotubes, firefly/Renilla luciferase, luminescence, FRG1 inhibition for FSHD, primary screen (AID 1084)
# condition details: FRG1 promoter luciferase, higher = more signal, called active from +8 up or from −8 down
Classification field: enter y for z-score values not below -0.1, n for values below it.

{"compound": "COCCCNC(=O)[C@]1(Cc2ccccc2)N=C(c2ccc(OCCCO)cc2)O[C@@H]1c1ccccc1CN=[N+]=[N-]", "class label": "n"}
{"compound": "CN(C)CCCCCCNC(=O)[C@@H]1C[C@@H]2C(=O)N[C@@H](CCCC[N+](C)(C)C)C(=O)N2[C@@H]1c1ccc(O)cc1", "class label": "y"}
{"compound": "CC(=O)NCCCC[C@@H]1NC(=O)[C@H]2C[C@@H](C(=O)NCCCCCNC(=O)CS)[C@@H](c3ccc(O)cc3)N2C1=O", "class label": "y"}
{"compound": "[N-]=[N+]=Nc1ccccc1C[C@]1(C(=O)NCC(O)CO)N=C(c2ccc(OCCCO)cc2)O[C@H]1c1ccccc1 (stereo partly specified)", "class label": "n"}
{"compound": "O=C1OCC=C[C@H]2OC34C=CCN(Cn5nnc6ccccc65)C(=O)[C@H]3N(CCCCCO)C(=O)[C@@H]4[C@@H]12 (stereo partly specified)", "class label": "n"}
{"compound": "O=C1NC(=O)C2C1C=CC(C(O)C1CC=CCC1)N2Nc1ccccn1 (stereo unspecified)", "class label": "y"}
{"compound": "COc1ccc([C@H]2C[C@H]3C(I)=C[C@@H]2C(=O)[C@]32CO2)cc1", "class label": "y"}
{"compound": "COc1ccc([Si](C)(C)[C@@H]2[C@@H](CC(=O)N3CCC[C@H]3CO)O[C@]3(C(=O)N(Cc4cccc(I)c4)c4ccccc43)[C@H]2C)cc1", "class label": "n"}
{"compound": "COc1ccc(CCNC(=O)[C@@]2(C)c3ccccc3C(=O)N(c3ccc(C)cn3)[C@H]2c2ccc(CO)cc2)cc1", "class label": "y"}
{"compound": "COC(=O)C(CC#Cc1ccc2c(c1)[C@]1(C(=O)N2)[C@H](c2ccc(O)cc2)N2[C@H](c3ccccc3)[C@H](c3ccccc3)OC(=O)[C@H]2[C@@H]1C(=O)N1CCN(c2ncccn2)CC1)C(=O)OC", "class label": "n"}
{"compound": "C=CCN1C(=O)[C@]2(Cc3ccccc3)N=C(c3ccc(OCCCO)cc3)O[C@@H]2c2ccccc21", "class label": "n"}
{"compound": "O=C(NC1CC1)[C@@H]1c2ccccc2C(=O)N(Cc2cc(F)cc(C(F)(F)F)c2)[C@H]1c1ccc(CO)cc1", "class label": "n"}
{"compound": "COC(=O)[C@@]1(Cc2ccc(OC)cc2)[C@H]2c3cc(C(=O)N4CCCC4)n(CCSCCO)c3C[C@H]2CN1C(=O)c1ccccc1", "class label": "n"}
{"compound": "CCCC=C(CCC)[C@@H](NS(=O)(=O)c1ccc(Cl)cc1)c1ccc(C(=O)OC)cc1", "class label": "y"}
{"compound": "C=CC[C@@]1(C(=O)N2CCCCC2)N=C(c2ccc(OCCCO)cc2)O[C@@H]1c1ccccc1CN=[N+]=[N-]", "class label": "n"}
{"compound": "Cc1ccc(S(=O)(=O)N2C[C@@H](C(=O)O)[C@H](Sc3ccccc3)C[C@H]2c2ccccc2)cc1", "class label": "n"}
{"compound": "COCCOC(=O)N1C(=O)[C@@]2(c3cc(C#CC4(O)CCCCCC4)ccc31)[C@H](c1ccccc1OCCO)N1[C@H](c3ccccc3)[C@H](c3ccccc3)OC(=O)[C@H]1[C@@H]2C(=O)N1CCc2cc(OC)c(OC)cc2C1", "class label": "n"}
{"compound": "COC(=O)C(CC#Cc1ccc2c(c1)[C@]1(C(=O)N2)[C@H](c2ccccc2OCCO)N2[C@H](c3ccccc3)[C@H](c3ccccc3)OC(=O)[C@H]2[C@@H]1C(=O)O)C(=O)OC", "class label": "n"}
{"compound": "C=CCNC(=O)[C@H]1[C@@H]2C(=O)O[C@@H](c3ccccc3)[C@@H](c3ccccc3)N2[C@@H](c2ccc(OCCO)cc2)[C@]12C(=O)Nc1ccc(C#CCC(C(=O)OC)C(=O)OC)cc12", "class label": "y"}
{"compound": "CCOC(=O)C1=CC[C@@H](c2ccc(C(F)(F)F)cc2)N(S(=O)(=O)c2ccc(C)cc2)[C@H]1c1ccccc1", "class label": "n"}
{"compound": "Cc1ccc(C2C3C(=O)CC4C(=O)N(c5ccccc5)C(=O)C4C3CN2S(=O)(=O)c2ccc(C)cc2)cc1 (stereo unspecified)", "class label": "y"}
